Cited source for all entries: paper PMC10367067

- Tested on: NIH-3T3 (mouse embryonic fibroblasts) cells
- PROTOCOL: MTT assay, NIH-3T3 normal cells
- Format: cell-based
- MEASUREMENT_CONDITIONS: Mus musculus, NIH3T3; 48 h of exposure, mean ± SD
VALUE_KIND: pIC50
Expect pIC50 as a plain number equal to -log10 of the molar concentration.

q: Consider the compound shown here: CCN(CC)c1ccc(/C=N/NC(=S)SC)c(O)c1 [H2L^1] What is its recorded pIC50?
a: 4.63

###

- Test system: HT-29 (colon cancer) cells
- PROTOCOL: MTT assay, HT-29 cells
- Type: cell-based
- MEASUREMENT_CONDITIONS: 48 h of exposure, mean ± SD
VALUE_KIND: IC50 (µM)
Return type: number; implicit unit µM.

q: Reported IC50, compound CCN(CC)c1ccc2c(c1)[O][V]1([O]c3cc(N(CC)CC)ccc3C=NN=C(SC)[S]1)[S]C(SC)=NN=C2 (stereo not shown) [complex 1, [V^IV(L^1)2]] : ____
a: 7.2
